- Tested on: STEME (common chickweed)
- ASSAY PROCEDURE: Pre-emergence herbicidal activity, cool season
- Type: in vivo, Stellaria media
- ASSAY SETUP: lowest tested rate with 80% or greater inhibition; rates 300, 100, 30, 10 g/ha; about 14 days
MEASURED ENDPOINT: Pre-emergence activity GR80, STEME

Here are 8 molecules together with their reported answers.
| MOLECULE | Pre-emergence activity GR80, STEME |
| --- | --- |
| O=C(N1CCOCC1)n1cnc(S(=O)(=O)C(F)(F)C(F)(F)Br)n1 [Example 72] | [empty] |
| O=C(N1CCCC1)n1cnc(S(=O)(=O)C(F)(F)C(F)F)n1 [Example 59] | 300 g/ha |
| CCN(CC)C(=S)n1cnc(S(=O)(=O)C(F)(F)Cl)n1 [Example 94] | 300 g/ha |
| C#CCN(C)C(=O)n1cnc(S(=O)(=O)C(F)F)n1 [Example 31] | [empty] |
| CN(C(=O)n1cnc(S(=O)(=O)C(F)F)n1)C1CCCCC1 [Example 32] | 300 g/ha |
| CCCN(CC)C(=O)n1cnc(S(=O)(=O)C(F)(F)C(F)F)n1 [Example 63] | 30 g/ha |
| CCN(CC)C(=O)n1cnc(S(=O)(=O)C(F)(F)SCc2ccccc2)n1 [Example 10] | 300 g/ha |
| CCSC(F)(F)S(=O)(=O)c1ncn(C(=O)N2CCOCC2)n1 [Example 48] | 300 g/ha |

Enquiry: State the recorded Pre-emergence activity GR80, STEME for this entry: C#CCN(C)C(=O)n1cnc(S(=O)(=O)C(F)(F)C(F)(F)Br)n1 [Example 78]
Return: [empty]

----------
- Tested on: VERPE (creeping speedwell)
- ASSAY PROCEDURE: Pre-plant incorporated (PPI) herbicidal activity, cool season
- Assay type: in vivo, Veronica persicaria
- ASSAY SETUP: weed, PPI application, 300 g/ha
The molecules listed here are annotated with their Percent inhibition VERPE.
Answer format: numeric, % implied, no suffix.

Examples with answers:
| ITEM SMILES | TARGET OR TEST SYSTEM | Percent inhibition VERPE, % |
| --- | --- | --- |
| C=C(CC(F)(F)S(=O)(=O)c1ncn(C(=O)N(CC)CC)n1)C[Si](C)(C)C | VERPE (creeping speedwell) | 90 |
| CCN(CC)C(=O)n1cnc(S(=O)(=O)C(F)(F)SCCOC)n1 | VERPE (creeping speedwell) | 100 |
| CCN(CC)C(=O)n1cnc(S(=O)(=O)C(F)(F)SCc2ccccc2)n1 | VERPE (creeping speedwell) | 100 |
| CCN(CC)C(=O)n1cnc(S(=O)(=O)C(F)(F)SCC(=O)OC)n1 | VERPE (creeping speedwell) | 100 |

Below: the item to evaluate.
Enquiry: Which measured Percent inhibition VERPE value corresponds to CCN(CC)C(=O)n1cnc(S(=O)(=O)C(F)(F)C(F)F)n1 ?
Return: 100

----------
A collection of molecules and their measured Pre-emergence activity (GR80) ALOMY
- Test system: ALOMY (blackgrass)
- ASSAY PROCEDURE: Pre-emergence herbicidal activity, cool season
- Type: in vivo, Alopecurus myosuroides
- ASSAY SETUP: GR80 = lowest tested rate (300, 100, 30, 10 g/ha) with 80% or greater inhibition; approx. 14 days after treating; 18/13° C.
State just the number; it will be interpreted in g/ha.

Guide cases for Pre-emergence activity (GR80) ALOMY, answers given:
| MOLECULE | TARGET OR TEST SYSTEM | Pre-emergence activity (GR80) ALOMY, g/ha |
| --- | --- | --- |
| CN(C(=O)n1cnc(S(=O)(=O)C(F)F)n1)C1CCCCC1 [Example 32] | ALOMY (blackgrass) | 300 |
| CCN(CC)C(=S)n1cnc(S(=O)(=O)C(F)(F)Cl)n1 [Example 94] | ALOMY (blackgrass) | 10 |
| CN(C(=O)n1cnc(S(=O)(=O)C(F)F)n1)c1ccccc1 [Example 27] | ALOMY (blackgrass) | 300 |

Now for another entry.
Enquiry: Need Pre-emergence activity (GR80) ALOMY of O=C(N1CCCC1)n1cnc(S(=O)(=O)C(F)(F)C(F)F)n1 [Example 59] , thanks.
Return: 300
